# system name: Lck (h) (Homo sapiens, UniProt P06239)
# Sequence (P06239 whole entry): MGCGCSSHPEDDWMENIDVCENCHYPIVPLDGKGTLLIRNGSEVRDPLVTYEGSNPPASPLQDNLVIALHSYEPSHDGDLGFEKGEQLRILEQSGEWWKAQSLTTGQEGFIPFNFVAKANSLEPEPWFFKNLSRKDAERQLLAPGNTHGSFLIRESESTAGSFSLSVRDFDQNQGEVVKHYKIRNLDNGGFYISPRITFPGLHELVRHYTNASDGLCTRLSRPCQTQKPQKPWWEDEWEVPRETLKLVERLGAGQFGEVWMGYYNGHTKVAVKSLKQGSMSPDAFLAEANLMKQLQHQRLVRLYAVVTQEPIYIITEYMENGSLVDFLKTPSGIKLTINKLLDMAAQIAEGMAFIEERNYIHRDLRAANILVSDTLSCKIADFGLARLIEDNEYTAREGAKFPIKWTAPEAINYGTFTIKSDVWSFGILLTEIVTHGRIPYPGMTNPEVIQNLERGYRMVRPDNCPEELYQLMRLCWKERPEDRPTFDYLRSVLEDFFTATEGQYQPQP
# test details: Lck Human  Kinase Enzymatic Radiometric Assay
# Assay type: biochemical
# condition info: ratio of Lck IC50 to HPK1 IC50
Field: LcK IC50/HPK IC50 selectivity. Provide a value for each of the compounds that follow.

Inquiry: Any idea what LcK IC50/HPK IC50 selectivity came out for Nc1ncc(-c2cnn(C3CCOCC3)c2)cc1-c1ccc2c(c1)CCNC2=O [reference compound] on Lck (h) (Homo sapiens, UniProt P06239)?
Reply text: 0.2

Inquiry: GET /values?readout=LcK IC50/HPK IC50 selectivity&system=Lck (h) (Homo sapiens, UniProt P06239)&item= Nc1nc(F)c(-c2ccc(N3CCCCC3)cc2)cc1-c1ccc2c(c1)CCNC2=O [drawing 2679]
Reply text: 1250

Inquiry: Hi! What's the reported LcK IC50/HPK IC50 selectivity for Nc1ncc(-c2ccc(N3C[C@@H]4CCO[C@@H]4C3)cc2)cc1-c1ccc2c(c1)CCNC2=O [reference compound] on Lck (h) (Homo sapiens, UniProt P06239)?
Reply text: 34

Inquiry: Entry Nc1ncc(-c2ccc(N3CCCC3)cc2)cc1-c1ccc2c(c1)CCNC2=O [reference compound] , system Lck (h) (Homo sapiens, UniProt P06239): what LcK IC50/HPK IC50 selectivity was measured?
Reply text: 69

Inquiry: Item Nc1nc(F)c(-c2ccc(N3CCCN4CCCC4C3)cc2)cc1-c1ccc2c(c1)CCNC2=O (stereo not shown) [drawing 2691] with Lck (h) (Homo sapiens, UniProt P06239) - LcK IC50/HPK IC50 selectivity?
Reply text: 1073

Inquiry: What value of LcK IC50/HPK IC50 selectivity on Lck (h) (Homo sapiens, UniProt P06239) does Nc1nc(F)c(-c2ccc3c(c2)OCCCO3)cc1-c1ccc2c(c1)CCNC2=O [drawing 2687] have?
Reply text: 1429

Inquiry: For Lck (h) (Homo sapiens, UniProt P06239), provide LcK IC50/HPK IC50 selectivity of Nc1nc(F)c(-c2ccc(N3C[C@H]4COC[C@H]4C3)cc2)cc1-c1ccc2c(c1)CCNC2=O please.
Reply text: 323

Inquiry: Item Nc1nc(F)c(-c2ccc(N3CCCC3)cc2)cc1-c1ccc2c(c1)CCNC2=O [drawing 2677] with Lck (h) (Homo sapiens, UniProt P06239) - LcK IC50/HPK IC50 selectivity?
Reply text: 769

Inquiry: What reported LcK IC50/HPK IC50 selectivity corresponds to Nc1ncc(-c2ccc(C3CCNCC3)cc2)cc1-c1ccc2c(c1)CCNC2=O [reference compound] on Lck (h) (Homo sapiens, UniProt P06239)?
Reply text: 45

Inquiry: # get_value(readout= LcK IC50/HPK IC50 selectivity, system= Lck (h) (Homo sapiens, UniProt P06239)) for Nc1ncc(-c2ccc(N3CCNCC3)c(C(F)(F)F)c2)cc1-c1ccc2c(c1)CCNC2=O [reference compound]
Reply text: 145

Inquiry: Short answer please: LcK IC50/HPK IC50 selectivity, Lck (h) (Homo sapiens, UniProt P06239), entry Nc1nc(F)c(-c2ccc(C3CCNCC3)cc2)cc1-c1cc2c(cc1F)C(=O)NCC2 [drawing 2693]
Reply text: 704

Inquiry: Query for Lck (h) (Homo sapiens, UniProt P06239): what LcK IC50/HPK IC50 selectivity does the record show for Nc1ncc(-c2ccc(N3C[C@H]4COC[C@H]4C3)cc2)cc1-c1ccc2c(c1)CCNC2=O [reference compound] ?
Reply text: 51

Inquiry: # returns recorded LcK IC50/HPK IC50 selectivity (system: Lck (h) (Homo sapiens, UniProt P06239)) for Nc1ncc(-c2ccc(N3CCCCC3)cc2)cc1-c1ccc2c(c1)CCNC2=O [reference compound]
Reply text: 79

Inquiry: Record Nc1nc(F)c(-c2ccc(N3C[C@@H]4CCO[C@@H]4C3)cc2)cc1-c1ccc2c(c1)CCNC2=O [drawing 2683] : what is its LcK IC50/HPK IC50 selectivity with Lck (h) (Homo sapiens, UniProt P06239)?
Reply text: 1429

Inquiry: Item: Nc1nc(F)c(-c2ccc(C3CCNCC3)cc2)cc1-c1ccc2c(c1)CCNC2=O [drawing 2673] Test system: Lck (h) (Homo sapiens, UniProt P06239) Read-out: LcK IC50/HPK IC50 selectivity Value: ?
Reply text: 1603

Inquiry: Lab note: need LcK IC50/HPK IC50 selectivity with Lck (h) (Homo sapiens, UniProt P06239) for entry Nc1nc(F)c(-c2ccc(N3CCN4CCCC4C3)cc2)cc1-c1ccc2c(c1)CCNC2=O (stereo not shown) [drawing 2689] , please look it up.
Reply text: 1480

Taken from patent US20240343704A1.
